Source of measurements: paper PMC7961048

Quick reference: Kd of the listed items.
Target: T1, full-length human 14-3-3η fused to the C terminus of MBP (human, UniProt Q04917 1-246)
T1 chain: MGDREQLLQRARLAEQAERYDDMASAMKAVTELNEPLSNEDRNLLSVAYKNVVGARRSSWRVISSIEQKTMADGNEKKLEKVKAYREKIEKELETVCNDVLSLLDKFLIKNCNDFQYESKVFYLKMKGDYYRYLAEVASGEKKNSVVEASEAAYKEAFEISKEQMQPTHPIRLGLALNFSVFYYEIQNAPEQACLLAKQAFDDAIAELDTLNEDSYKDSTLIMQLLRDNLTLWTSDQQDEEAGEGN
Assay: FP
Non-standard residues stand in square brackets, D forms with d. No end group written: not given here. *: point of attachment. FITC = O=C1OC2(c3ccc(O)cc3Oc3cc(O)ccc32)c2ccc(NC(=S)*)cc21; Biotin = O=C1N[C@H]2[C@H](CS[C@H]2CCCCC(=O)*)N1; pT = C[C@@H](OP(=O)(O)O)[C@H](N)C(=O)O; ttds = NCCCOCCOCCOCCCNC(=O)CCC(=O)*; pS = N[C@@H](COP(=O)(O)O)C(=O)O
Lab book: enter the figure in nM, no units written.

For orientation, consider the following solved cases.
{"columns": ["Binder", "Value unit", "Kd"],
 "data": [
  ["{Biotin-ttds}-RRVRKLPS[pT]TL [RSK1 phospho-PBM peptide RSK1_-2P]", "nM", 660],
  ["{Biotin-ttds}-RRVRKLPST[pT]L [RSK1 phospho-PBM peptide RSK1_-1P]", "nM", 460],
  ["{FITC}-WLRRA[pS]APLPGLK [fluorescently labeled HSPB6 phosphopeptide (fpB6)]", "nM", 2470]
]}

Please look at the following binder next.
Return Kd (reported value) for this binder: {Biotin-ttds}-SSRTRRE[pT]QL [HPV16 E6 phospho-PBM peptide p16E6]
80400
